These measurements were taken from the supplement of paper PMC10567573.

So I've got a bunch of variants here, and I need their protein stability index values.
B1: FAM50A (parent)
chain: KALEILRKDFSELRSAGVEQLMYI

Variants of: B1
Experimental Details: protein stability index of a GFP-peptide fusion (GPS, HEK-293T) (PSI 1-6); higher = more stable;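 note: lentivirally expressed fusions sorted by FACS into six bins by GFP to DsRed ratio, PSI derived from sequencing read proportions per bin multiplied by bin number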
Study Conditions: c terminus: a fixed tail appended
Answers are plain numbers.

Some entries whose results are on file:
K1M :: 3.33
E4D :: 1.62
K1D :: 1.28
K8G :: 3.52
L13I :: 2

List reported protein stability index for each of these variants:
1. L21P
2. E19P
3. K1E
4. K8D
5. E4F

Output:
[3.17, 4.03, 1.88, 2.16, 3.86]

// for each variant in input: emit protein stability index
1. G17Y
2. R7E
3. L3H
4. S15R
5. F10A
6. Y23E
7. M22T

Output:
2.95
1.54
1.57
2.64
1.74
2.41
2.22
